# tested-system: T1, 4H2754-AA
# T1 chain: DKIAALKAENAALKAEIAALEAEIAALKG
# assay-comment: two-hybrid library CCmax;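 note: natural log of median RNA to DNA barcode read ratio; higher means stronger binding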
# test-conditions: mean of both orientations
experimental-endpoint: interaction score

Record excerpt, results attached:
[[record]]
binder = "DENAALEAEIAALEAKNAALKAKIAALKG [4H1086-AA]"
endpoint_result = 0.514

[[record]]
binder = "DKIAALEAEIAALKAKNAALEAKIAALEG [4H2165-AA]"
endpoint_result = -0.0505

[[record]]
binder = "DEIAALEAEIAALKAKNAALKAEIAALKG [4H122-AA]"
endpoint_result = 0.606

[[record]]
binder = "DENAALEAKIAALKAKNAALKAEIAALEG [4H1401-AA]"
endpoint_result = -1.71

[[record]]
binder = "DKIAALKAEIAALEAKNAALKAEIAALEG [4H2617-AA]"
endpoint_result = -1.08


1. DKIAALEAKIAALEAKNAALEAEIAALKG [4H2354-AA]
2. DEIAALEAENAALKAKIAALKAEIAALKG [4H234-AA]
3. DENAALEAKIAALKAEIAALEAKNAALKG [4H1352-AA]
QUERY: Descending sort on interaction score required. Output spec: a listing of the labels in the requested order.
RESULT: 2, 3, 1
(2: 2.04, 3: -0.982, 1: -1.42)
